test system: E. coli TEM7 3457E; assay: MIC, two-fold agar dilution; type: cell-based; details: Muller-Hinton agar, 37° C., 20 hours
value_type: minimal inhibitory concentration (MIC)
Numbers only.

Provide reported minimal inhibitory concentration (MIC) for each item, in the same order as listed.
1. Nc1ccnc(SCC2=C(C(=O)O)N3C(=O)[C@@H](NC(=O)/C(=N\O[C@@H](C(=O)O)c4ccc(O)c(O)c4)c4csc(N)n4)[C@H]3SC2)n1 [Compound I-3R]
2. Nc1ccnc(SCC2=C(C(=O)O)N3C(=O)[C@@H](NC(=O)/C(=N\O[C@H](C(=O)O)c4ccc(O)c(O)c4)c4csc(N)n4)[C@H]3SC2)n1 [Compound I-3S]

Result:
[0.016, 0.063]

###

tested on: Staphylococcus aureus 241; experiment: MIC, two-fold agar dilution; type: cell-based; conditions: Muller-Hinton agar, 37° C., 20 hours
Please go through the items and note down their minimal inhibitory concentration (MIC).
One number for each entry.

Before answering, review these 5 worked examples.
chemical_smiles	minimal inhibitory concentration (MIC)
Nc1cc(SCC2=C(C(=O)O)N3C(=O)[C@@H](NC(=O)/C(=N\O[C@@H](C(=O)O)c4ccc(O)c(O)c4)c4csc(N)n4)[C@H]3SC2)nc(N)n1	64
Nc1nc(/C(=N/O[C@H](C(=O)O)c2ccc(O)c(O)c2)C(=O)N[C@@H]2C(=O)N3C(C(=O)O)=C(CSc4nc(N)c5c(n4)CCC5)CS[C@H]23)cs1	64
Nc1cc(N)nc(SCC2=C(C(=O)O)N3C(=O)[C@@H](NC(=O)/C(=N\O[C@@H](C(=O)O)c4ccc(O)c(O)c4)c4csc(N)n4)[C@H]3SC2)n1	128
Cc1c(N)nc(SCC2=C(C(=O)O)N3C(=O)[C@@H](NC(=O)/C(=N\O[C@@H](C(=O)O)c4ccc(O)c(O)c4)c4csc(N)n4)[C@H]3SC2)nc1N	128
Nc1ccnc(SCC2=C(C(=O)O)N3C(=O)[C@@H](NC(=O)/C(=N\O[C@H](C(=O)O)c4ccc(O)c(O)c4)c4csc(N)n4)[C@H]3SC2)n1	128

Provide reported minimal inhibitory concentration (MIC) for each item, in the same order as listed.
1. Nc1ccnc(SCC2=C(C(=O)O)N3C(=O)[C@@H](NC(=O)/C(=N\O[C@@H](C(=O)O)c4ccc(O)c(O)c4)c4csc(N)n4)[C@H]3SC2)n1
2. Nc1nc(/C(=N/O[C@@H](C(=O)O)c2ccc(O)c(O)c2)C(=O)N[C@@H]2C(=O)N3C(C(=O)O)=C(CSc4nc(N)c5c(n4)CCC5)CS[C@H]23)cs1

Result:
1. 128
2. 128

###

Please go through the items and note down their minimal inhibitory concentration (MIC).
tested on: Salmonella typhimurium 14028A; assay: MIC, two-fold agar dilution; assay type: cell-based; settings: Muller-Hinton agar, 37° C., 20 hours

Before answering, review these 4 worked examples.
compound	minimal inhibitory concentration (MIC)
Nc1cc(N)nc(SCC2=C(C(=O)O)N3C(=O)[C@@H](NC(=O)/C(=N\O[C@H](C(=O)O)c4ccc(O)c(O)c4)c4csc(N)n4)[C@H]3SC2)n1 [Compound I-1S]	0.016
Nc1nc(/C(=N/O[C@H](C(=O)O)c2ccc(O)c(O)c2)C(=O)N[C@@H]2C(=O)N3C(C(=O)O)=C(CSc4nc(N)c(N)c(N)n4)CS[C@H]23)cs1 [Compound I-5S]	0.016
Nc1ccnc(SCC2=C(C(=O)O)N3C(=O)[C@@H](NC(=O)/C(=N\O[C@H](C(=O)O)c4ccc(O)c(O)c4)c4csc(N)n4)[C@H]3SC2)n1 [Compound I-3S]	0.016
Cc1c(N)nc(SCC2=C(C(=O)O)N3C(=O)[C@@H](NC(=O)/C(=N\O[C@H](C(=O)O)c4ccc(O)c(O)c4)c4csc(N)n4)[C@H]3SC2)nc1N [Compound I-2S]	0.016

Provide reported minimal inhibitory concentration (MIC) for each item, in the same order as listed.
1. Cc1c(N)nc(SCC2=C(C(=O)O)N3C(=O)[C@@H](NC(=O)/C(=N\O[C@@H](C(=O)O)c4ccc(O)c(O)c4)c4csc(N)n4)[C@H]3SC2)nc1N [Compound I-2R]
2. Nc1nc(/C(=N/O[C@H](C(=O)O)c2ccc(O)c(O)c2)C(=O)N[C@@H]2C(=O)N3C(C(=O)O)=C(CSc4nc(N)c5c(n4)CCC5)CS[C@H]23)cs1 [Compound I-4S]

Result:
1. 0.25
2. 0.016

Provide reported minimal inhibitory concentration (MIC) for each item, in the same order as listed.
1. Nc1cc(SCC2=C(C(=O)O)N3C(=O)[C@@H](NC(=O)/C(=N\O[C@H](C(=O)O)c4ccc(O)c(O)c4)c4csc(N)n4)[C@H]3SC2)nc(N)n1 [Compound I-6S]
2. Nc1nc(/C(=N/O[C@@H](C(=O)O)c2ccc(O)c(O)c2)C(=O)N[C@@H]2C(=O)N3C(C(=O)O)=C(CSc4nc(N)c5c(n4)CCC5)CS[C@H]23)cs1 [Compound I-4R]
3. Nc1cc(SCC2=C(C(=O)O)N3C(=O)[C@@H](NC(=O)/C(=N\O[C@H](C(=O)O)c4ccc(O)c(O)c4)c4csc(N)n4)[C@H]3SC2)ncn1 [Compound I-7S]
4. Nc1cc(SCC2=C(C(=O)O)N3C(=O)[C@@H](NC(=O)/C(=N\O[C@@H](C(=O)O)c4ccc(O)c(O)c4)c4csc(N)n4)[C@H]3SC2)nc(N)n1 [Compound I-6R]

Result:
0.016
0.13
0.016
0.13

Provide reported minimal inhibitory concentration (MIC) for each item, in the same order as listed.
1. CC(C)(O/N=C(\C(=O)N[C@@H]1C(=O)N2C(C(=O)[O-])=C(C[n+]3ccccc3)CS[C@H]12)c1csc(N)n1)C(=O)O [Ceftazidime, reference compound]
2. Nc1nc(/C(=N/O[C@@H](C(=O)O)c2ccc(O)c(O)c2)C(=O)N[C@@H]2C(=O)N3C(C(=O)O)=C(CSc4nc(N)c(N)c(N)n4)CS[C@H]23)cs1 [Compound I-5R]
3. Nc1cc(N)nc(SCC2=C(C(=O)O)N3C(=O)[C@@H](NC(=O)/C(=N\O[C@@H](C(=O)O)c4ccc(O)c(O)c4)c4csc(N)n4)[C@H]3SC2)n1 [Compound I-1R]
4. Nc1cc(SCC2=C(C(=O)O)N3C(=O)[C@@H](NC(=O)/C(=N\O[C@@H](C(=O)O)c4ccc(O)c(O)c4)c4csc(N)n4)[C@H]3SC2)ncn1 [Compound I-7R]

Result:
1. 0.25
2. 0.13
3. 0.13
4. 0.13
